Molecular target: F508del CFTR (Homo sapiens, UniProt P13569, DEL508-508)
Construct: Primary CF airway epithelial cells were obtained from the UNC Cystic Fibrosis Tissue Procurement and Cell Culture Core; host or cells: primary CF airway epithelial cells
Sequence (P13569 with tags, fused parts or gaps DEL508-508): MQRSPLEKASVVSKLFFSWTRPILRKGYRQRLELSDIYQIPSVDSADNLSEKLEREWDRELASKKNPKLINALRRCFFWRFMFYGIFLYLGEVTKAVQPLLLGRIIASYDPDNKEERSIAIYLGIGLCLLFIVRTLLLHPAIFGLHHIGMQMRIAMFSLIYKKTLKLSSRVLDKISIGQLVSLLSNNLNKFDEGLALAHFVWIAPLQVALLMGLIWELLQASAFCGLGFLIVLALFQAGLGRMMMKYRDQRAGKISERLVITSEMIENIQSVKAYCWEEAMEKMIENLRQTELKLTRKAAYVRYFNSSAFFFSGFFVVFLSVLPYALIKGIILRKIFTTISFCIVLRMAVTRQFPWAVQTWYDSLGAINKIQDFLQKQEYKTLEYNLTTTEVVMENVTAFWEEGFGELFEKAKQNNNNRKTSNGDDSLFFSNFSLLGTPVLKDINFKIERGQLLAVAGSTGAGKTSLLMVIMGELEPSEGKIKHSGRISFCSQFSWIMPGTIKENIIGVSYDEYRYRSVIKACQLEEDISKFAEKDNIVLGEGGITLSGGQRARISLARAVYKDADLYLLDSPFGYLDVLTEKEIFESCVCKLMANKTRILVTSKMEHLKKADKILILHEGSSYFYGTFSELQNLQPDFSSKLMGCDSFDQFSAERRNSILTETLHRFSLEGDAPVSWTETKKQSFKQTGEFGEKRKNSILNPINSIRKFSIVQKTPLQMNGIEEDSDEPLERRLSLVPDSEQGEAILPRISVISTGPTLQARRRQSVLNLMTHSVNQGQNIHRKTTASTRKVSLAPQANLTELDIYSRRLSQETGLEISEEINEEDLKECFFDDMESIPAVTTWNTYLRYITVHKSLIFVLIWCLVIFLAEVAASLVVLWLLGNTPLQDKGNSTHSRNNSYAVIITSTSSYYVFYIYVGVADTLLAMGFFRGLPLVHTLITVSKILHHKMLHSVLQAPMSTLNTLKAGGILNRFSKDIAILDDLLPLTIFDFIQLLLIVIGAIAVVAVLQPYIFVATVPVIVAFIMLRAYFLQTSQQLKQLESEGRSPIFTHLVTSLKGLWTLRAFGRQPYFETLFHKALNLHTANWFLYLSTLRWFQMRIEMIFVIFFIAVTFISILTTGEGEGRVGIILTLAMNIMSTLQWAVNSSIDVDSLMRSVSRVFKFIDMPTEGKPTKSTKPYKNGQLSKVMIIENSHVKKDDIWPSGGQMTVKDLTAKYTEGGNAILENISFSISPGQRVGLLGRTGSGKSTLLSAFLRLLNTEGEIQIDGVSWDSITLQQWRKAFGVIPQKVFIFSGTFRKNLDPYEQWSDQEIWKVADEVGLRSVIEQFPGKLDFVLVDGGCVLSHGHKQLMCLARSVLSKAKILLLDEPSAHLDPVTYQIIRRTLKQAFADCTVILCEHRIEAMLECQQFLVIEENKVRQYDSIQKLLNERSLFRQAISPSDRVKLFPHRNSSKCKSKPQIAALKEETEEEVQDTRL
Experiment: CoPo (corrector plus potentiator) equivalent current assay in primary CF airway epithelial cells, test compound added back as potentiator, no VX-770
Format: cell-based
Set-up: key: +++: NAUC>70% of positive control; ++: NAUC 70-40% of positive control; +: NAUC<40% of positive control; O: no positive response
Details: CoPo as % of positive control (VX-809 + acute VX-770)
Description: It was noticed that many of the test compounds had potentiator activity in addition to corrector activity. These compounds have been denoted as CoPos by FDL and others. […] A CoPo reading of zero means that the test compound has the same forskolin stimulated response as VX-809+VX-770 treatment for 24 hours. A CoPo reading of 1.0 means the test compound has the same forskolin response as cell treated with VX-809 and stimulated with forskolin+VX-770. […]

smiles text	CoPo Activity
CN(C(=O)Cn1nc(-c2cccc(F)c2)c2nc[nH]c2c1=O)c1ccc2c(c1)OC(F)(F)O2	O
CN(C(=O)Cn1nc(-c2cccc(Cl)c2)c2[nH]cnc2c1=O)c1ccc2c(c1)OC(F)(F)O2	O
